System: OVCAR-5 complex spheroids with HUVEC/MSC, viability, % test/control
Experiment: Anticancer human tumor OVCAR-5 cell line growth inhibition [AhR];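 also: spheroids exposed to compounds for 7 days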
Settings: curve of first compound; second compound 1 µM
pIC50: −log10 of the molar value.
Cut-off 6 on pIC50, inclusive. At or above means true; below means false.

[[record]]
compound = "CCc1c2c(nc3ccc(O)cc13)-c1cc3c(c(=O)n1C2)COC(=O)[C@]3(O)CC + CC(CO)NC(=O)c1cc(-c2ccc(Cl)cc2)nn(-c2cnn(C)c2)c1=O"
measured_on = "OVCAR-5 complex spheroids with HUVEC/MSC, viability, % test/control"
category_label = "true"

[[record]]
compound = "Nc1ncn(C2CC(O)C(CO)O2)c(=O)n1 (centres undefined) + CC(CO)NC(=O)c1cc(-c2ccc(Cl)cc2)nn(-c2cnn(C)c2)c1=O"
measured_on = "OVCAR-5 complex spheroids with HUVEC/MSC, viability, % test/control"
category_label = "false"

[[record]]
compound = "CC[C@@]1(O)C(=O)OCc2c1cc1n(c2=O)Cc2cc3c(CN(C)C)c(O)ccc3nc2-1 + Cc1ccccc1N=Nc1ccc(NC(=O)c2ccnn2C)c(C)c1"
measured_on = "OVCAR-5 complex spheroids with HUVEC/MSC, viability, % test/control"
category_label = "true"

[[record]]
compound = "COc1cccc2c1C(=O)c1c(O)c3c(c(O)c1C2=O)CC(O)(C(=O)CO)CC3OC1CC(N)C(O)C(C)O1 (centres undefined) + CC(CO)NC(=O)c1cc(-c2ccc(Cl)cc2)nn(-c2cnn(C)c2)c1=O"
measured_on = "OVCAR-5 complex spheroids with HUVEC/MSC, viability, % test/control"
category_label = "true"

[[record]]
compound = "COc1ccc([C@@H](O)c2cc(-c3ncnc4cc(N5CCOCC5)ccc34)c(F)cc2Cl)nn1 + Cc1ccccc1N=Nc1ccc(NC(=O)c2ccnn2C)c(C)c1"
measured_on = "OVCAR-5 complex spheroids with HUVEC/MSC, viability, % test/control"
category_label = "false"

[[record]]
compound = "O=C(C=Cn1cnc(-c2cc(C(F)(F)F)cc(C(F)(F)F)c2)n1)NNc1cnccn1 + Cc1cncc(-c2nc(NCCc3c[nH]c4ccccc34)c3ncn(C(C)C)c3n2)c1"
measured_on = "OVCAR-5 complex spheroids with HUVEC/MSC, viability, % test/control"
category_label = "false"

[[record]]
compound = "CC1COCCN1c1cc(-c2ccnn2C)c2ccnc(-c3ccn[nH]3)c2n1 (centres undefined) + Cc1cncc(-c2nc(NCCc3c[nH]c4ccccc34)c3ncn(C(C)C)c3n2)c1"
measured_on = "OVCAR-5 complex spheroids with HUVEC/MSC, viability, % test/control"
category_label = "true"

[[record]]
compound = "COc1cc(C2c3cc4c(cc3C(OC3OC5COC(C)OC5C(O)C3O)C3COC(=O)C23)OCO4)cc(OC)c1O (centres undefined) + CC(CO)NC(=O)c1cc(-c2ccc(Cl)cc2)nn(-c2cnn(C)c2)c1=O"
measured_on = "OVCAR-5 complex spheroids with HUVEC/MSC, viability, % test/control"
category_label = "false"

[[record]]
compound = "CCN(c1cc(-c2ccc(CN3CCOCC3)cc2)cc(C(=O)NCc2c(C)cc(C)[nH]c2=O)c1C)C1CCOCC1 + Cc1ccccc1N=Nc1ccc(NC(=O)c2ccnn2C)c(C)c1"
measured_on = "OVCAR-5 complex spheroids with HUVEC/MSC, viability, % test/control"
category_label = "false"

[[record]]
compound = "CC1COCCN1c1cc(C2(S(C)(=N)=O)CC2)nc(-c2ccnc3[nH]ccc23)n1 (centres undefined) + Cc1cncc(-c2nc(NCCc3c[nH]c4ccccc34)c3ncn(C(C)C)c3n2)c1"
measured_on = "OVCAR-5 complex spheroids with HUVEC/MSC, viability, % test/control"
category_label = "false"


Quick check, pIC50 >= 6? COc1cc(C2c3cc4c(cc3C(OC3OC5COC(C)OC5C(O)C3O)C3COC(=O)C23)OCO4)cc(OC)c1O (centres undefined) + Cc1ccccc1N=Nc1ccc(NC(=O)c2ccnn2C)c(C)c1 false

Can CC(C)c1c(-c2ccccc2)nc2c(C#N)c[nH]n2c1=O + Cc1cncc(-c2nc(NCCc3c[nH]c4ccccc34)c3ncn(C(C)C)c3n2)c1 be said to have pIC50 at or above 6? false
